assay: CREB reporter modulators under forskolin, primary screen, cell-based, PC12, CRE-LacZ reporter, forskolin-stimulated (AID 1146); details: luminescence, 4.5 h, higher = more signal, called active from +8 up or from −8 down;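 note: PC12 cells with 6xCRE LacZ reporter stimulated by forskolin 10 µM; beta-galactosidase reporter signal reflecting CREB driven transcription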
The threshold is inclusive: z-score of exactly 0.4 counts as yes (1); values below receive no (0).

See these solved cases before continuing.
Compound: O=C1CCCC=C1C(O)C1CCCCC1 (stereo not drawn)
Label class: yes (1)
--
Compound: CCc1cc2c(nc1CC)CCN(CCC(C)=NOC(C)CN1CCCCc3nc(C)c(C)cc31)C2 (stereo not drawn)
Label class: yes (1)
--
Compound: CSCC[C@@H]1NC(=O)CC=C[C@@H](C)COC(=O)[C@H](C)COC1=O
Label class: no (0)
--
Compound: CCOC(=O)CCN1C(=O)[C@H]2[C@H]3[C@H](O)[C@H](O)CC(=NNC(=O)OCc4ccccc4)[C@H]3CC[C@H]2C1=O
Label class: no (0)

Decide: z-score of C[C@@H](c1ccccc1)N1C(=O)[C@H]2[C@H]3[C@H](O)[C@H](O)CC(=NOC[C@@H](O)COCc4ccco4)[C@H]3CC[C@H]2C1=O >= 0.4?
yes (1)

Decide: z-score of CCOC(=O)[C@H](Cc1ccccc1)NC(=O)CCC1CC(OC(=O)NCc2cccc3ccccc23)CC2(CCCC(COC(=O)NCCc3ccc(Cl)cc3)O2)O1 (stereo partly drawn) >= 0.4?
no (0)

Decide: z-score of CCN1C(=O)[C@H]2[C@H]3[C@H](O)[C@H](O)CC(=NO[C@H](C)c4cn([C@@H]5COC[C@H]5O)nn4)[C@@H]3CC[C@H]2C1=O >= 0.4?
yes (1)

Decide: z-score of COc1ccc(COC(=O)NN=C2C[C@@H](O)[C@@H](O)[C@@H]3[C@@H]4C(=O)N(C[C@@H]5CCCO5)C(=O)[C@@H]4CC[C@@H]23)cc1 >= 0.4?
no (0)
